- TARGET OR SYSTEM: T1, FokI catalytic domain protein including a C-terminal 6xHis tag and GSGS linker (Flavobacterium okeanokoites, UniProt P14870 426-579)
- T1 construct: also called Fok-1; Fok1
- T1 sequence: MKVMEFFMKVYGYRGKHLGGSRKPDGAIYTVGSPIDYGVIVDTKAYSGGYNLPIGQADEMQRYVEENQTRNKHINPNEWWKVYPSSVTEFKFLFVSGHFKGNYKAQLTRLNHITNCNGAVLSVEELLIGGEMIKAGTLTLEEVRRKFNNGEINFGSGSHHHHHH
- ASSAY METHOD TEXT: Biacore SPR, antibody as ligand, FokI as analyte
Known Kd of a selection of binders
MEASUREMENT KIND: Kd

• 2299.7F11.B4 (antibody, V domains shown) VH: QIQLVQSGPELKKPGETVKISCKASGYTFTDYSIHWVKQAPGKGLKWMAWINTETGDPTYEDDFKGRFAFSLETSASTAYLQINNLKNEDTATYFCSKEGGFYFYAMDYWGQGTSVTVSS VL: DIVMSQSPSSLAVSAGEKVTMSCKSSQSLLSSRTRKNYLAWYQQKPGQSPKLLIKWASTRESGVPDRFTGSGSGTDFTLTISSVQAEDLAVYYCKQSYNLRTFGGGTKLEIK = < 1.13 nM
• 2299.6B3.B8.B6 (antibody, V domains shown) VH: QIQLVQSGPELKKPGETVKISCKASGYAFTDYSIHWMKQAPGEGLQWMGWINTETAKPAFGDDFKGRFAFSLETSANTAHLHINNLRTEDTATYFCAKEGGFYFYAMDYWGQGTSVTVSS VL: DIVMSQSPSSLAVSAGEKVTMNCKSSQSLLSSRTRKNYLAWYQQKPGQSPKLLIYWASTRDSGVPDRFTGSGSGTDFTLTISSVQAEDLAVYYCKQSYNFRTFGGGTKLEIK = < 8.66 nM
